Data origin: PubChem BioAssay (Tox21)

- EXPERIMENT DESCRIPTION: qHTS assay to identify small molecule agonists of the RXR signaling pathway - cell viability counter screen (AID 1159529); also: nearly all actives have a fitted effect of over 50% in size
- CONDITION NOTES: RXR-alpha-bla HEK293T viability, CellTiter-Glo, 16 h; series mostly up to 76.8 µM
Results filed as inconclusive are left out. Calls of active or inactive are those of the source. Calls follow the shape of the dose curve; as a rule, active = well fitted cell-killing curve with a large enough effect in the repeat runs; inconclusive = weak or mixed curves, or effect the other way; inactive = no such curve, though single readings can be large or run the other way.
Classes used: 1 (yes) = active, 0 (no) = inactive

# COMPOUND, CLASS NAME
rows = [
    ("COc1ccc(-c2coc3cc(O)ccc3c2=O)cc1", "0 (no)"),
    ("OC/C=C/CO", "0 (no)"),
    ("O=C(/C=C/c1ccccc1)OC/C=C/c1ccccc1", "0 (no)"),
    ("Nc1ccc(Oc2ccc(Cl)cc2)cc1", "0 (no)"),
    ("O=[N+]([O-])c1cccc(C(F)(F)F)c1", "0 (no)"),
    ("Cc1ccc(C)cc1", "0 (no)"),
    ("CN(C)C(=O)COC(=O)Cc1ccc(OC(=O)c2ccc(N=C(N)N)cc2)cc1", "0 (no)"),
    ("CN(C)[C@@H](CCOc1cccc2ccccc12)c1ccccc1", "1 (yes)"),
    ("Cc1c(F)c(N2CCNC(C)C2)cc2c1c(=O)c(C(=O)O)cn2C1CC1 (stereo not drawn)", "0 (no)"),
    ("CC(C)CCCCCOC(=O)CCS", "0 (no)"),
    ("Cl[Si](Cl)(c1ccccc1)c1ccccc1", "0 (no)"),
    ("OC[C@H]1O[C@H](O[C@H]2O[C@H](CO)[C@@H](O)[C@H](O)[C@H]2O)[C@H](O)[C@@H](O)[C@@H]1O", "0 (no)"),
    ("Cc1c(N)cccc1C(F)(F)F", "0 (no)"),
]
